Consider the following compounds; for each one, report its pIC50.
# target_of_assay: Receptor-type tyrosine-protein kinase FLT3 (Homo sapiens)
# Sequence (P36888 whole entry): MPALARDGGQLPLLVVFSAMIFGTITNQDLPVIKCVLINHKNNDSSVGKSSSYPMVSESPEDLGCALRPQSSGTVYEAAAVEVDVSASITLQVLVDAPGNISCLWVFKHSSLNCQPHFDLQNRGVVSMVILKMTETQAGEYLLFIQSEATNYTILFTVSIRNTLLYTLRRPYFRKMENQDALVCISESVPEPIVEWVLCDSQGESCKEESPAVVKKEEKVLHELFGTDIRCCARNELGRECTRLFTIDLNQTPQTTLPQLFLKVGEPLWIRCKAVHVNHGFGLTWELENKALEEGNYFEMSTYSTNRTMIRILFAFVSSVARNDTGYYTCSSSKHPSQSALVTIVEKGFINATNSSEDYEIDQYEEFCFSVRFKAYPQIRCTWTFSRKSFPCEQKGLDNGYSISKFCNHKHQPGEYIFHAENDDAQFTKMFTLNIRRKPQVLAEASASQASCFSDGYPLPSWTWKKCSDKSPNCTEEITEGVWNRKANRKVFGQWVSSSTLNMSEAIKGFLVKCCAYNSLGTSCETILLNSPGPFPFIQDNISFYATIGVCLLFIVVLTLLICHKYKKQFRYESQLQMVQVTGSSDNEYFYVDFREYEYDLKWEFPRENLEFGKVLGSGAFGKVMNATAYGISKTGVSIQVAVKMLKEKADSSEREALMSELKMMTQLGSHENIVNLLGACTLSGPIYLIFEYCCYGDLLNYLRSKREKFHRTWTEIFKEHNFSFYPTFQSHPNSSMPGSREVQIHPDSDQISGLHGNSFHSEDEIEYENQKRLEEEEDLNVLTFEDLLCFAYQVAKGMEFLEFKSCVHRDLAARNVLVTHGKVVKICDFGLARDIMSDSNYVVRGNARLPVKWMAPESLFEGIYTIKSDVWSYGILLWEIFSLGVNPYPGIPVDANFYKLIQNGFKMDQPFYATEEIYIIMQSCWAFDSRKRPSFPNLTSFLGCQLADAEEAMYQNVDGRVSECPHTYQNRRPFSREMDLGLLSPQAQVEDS
# test_method_notes: Inhibition of recombinant human N-terminal GST-tagged FLT3 (564 to end residues) expressed in sf21 cells using biotin labelled Ahx-GGEEEEYFELVKKKK peptide as substrate preincubated with enzyme for 15 mins followed by substrate addition and further incubated for 45 mins in presence of 10 uM of ATP by TR-FRET assay
One number for each entry, as −log10 of the molar value.

// solved cases for pIC50 follow
1) C[C@H](c1ccnc(Nc2nc3ccc(-c4cc(N(C)C)ncn4)cc3[nH]2)c1)N1CCN(C(=O)CC(F)(F)F)CC1 :: 6.91
2) O=C(CC(F)(F)F)N1CCN(Cc2ccnc(Nc3nc4ccc(-c5cnn(CC6CC6)c5)cc4[nH]3)c2)CC1 :: 8.05
3) Cc1cc(-c2ccc3nc(Nc4cc(CN5CCN(C(=O)CC(F)(F)F)CC5)ccn4)[nH]c3c2)ccn1 :: 9.52

(Q) Could you share which pIC50 value was measured for Cc1cc(-c2ccc3nc(Nc4cc([C@@H](C)N5CCN(C(=O)CC(F)(F)F)CC5)ccn4)[nH]c3c2)ncn1 ?
(A) 8.00

###

# target_of_assay: Cytochrome P450 2C8 (Homo sapiens, UniProt P10632)
# Sequence (P10632 whole entry): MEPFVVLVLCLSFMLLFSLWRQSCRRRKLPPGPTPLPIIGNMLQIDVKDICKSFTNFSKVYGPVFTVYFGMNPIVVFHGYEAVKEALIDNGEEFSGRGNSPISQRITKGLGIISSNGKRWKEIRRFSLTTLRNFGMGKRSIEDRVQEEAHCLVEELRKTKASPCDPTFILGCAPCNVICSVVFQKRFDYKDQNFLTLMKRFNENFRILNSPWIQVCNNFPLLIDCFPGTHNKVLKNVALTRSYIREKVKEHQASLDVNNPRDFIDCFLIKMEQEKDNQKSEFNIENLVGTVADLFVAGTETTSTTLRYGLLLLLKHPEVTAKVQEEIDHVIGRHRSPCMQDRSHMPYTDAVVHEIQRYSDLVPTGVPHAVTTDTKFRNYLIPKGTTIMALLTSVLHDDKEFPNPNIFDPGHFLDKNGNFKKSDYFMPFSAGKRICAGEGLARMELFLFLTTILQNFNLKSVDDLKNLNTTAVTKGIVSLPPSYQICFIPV
property_measured: pIC50
Give bare numbers, as −log10 of the molar value.

(Q) Which measured pIC50 belongs to C[C@H](c1ccnc(Nc2nc3ccc(-c4cc(N(C)C)ncn4)cc3[nH]2)c1)N1CCN(C(=O)CC(F)(F)F)CC1 , tested on Cytochrome P450 2C8 (Homo sapiens, UniProt P10632)?
(A) 6.07

###

# target_of_assay: CDK9/cyclin T1 (Homo sapiens)
# test_method_notes: Inhibition of recombinant full length human His-tagged CDK9/CyclinT1 expressed in baculovirus expression system using biotin-labelled Ttds-YISPLKSPYKISEG peptide as substrate preincubated with enzyme for 15 mins followed by substrate addition and further incubated for 25 mins presence of 10 uM of ATP by TR-FRET assay
property_measured: IC50 (µM)
Give bare numbers, in µM.

// solved cases for IC50 follow
1. COCc1cc(-c2ccc3nc(Nc4cc([C@@H](C)N5CCN(C(=O)CC(F)(F)F)CC5)ccn4)[nH]c3c2)ncn1 :: 5.11
2. CCn1cc(-c2ccc3nc(Nc4cc(CN5CCN(C(=O)CC(F)(F)F)CC5)ccn4)[nH]c3c2)cn1 :: 1.46

Now for another entry.
(Q) Could you share which IC50 value was measured for O=C(CC(F)(F)F)N1CCN(Cc2ccnc(Nc3nc4ccc(-c5cnn(CC6CC6)c5)cc4[nH]3)c2)CC1 ?
(A) 9.19

###

# test_method_notes: Solubility of compound in water at pH 6.5
# Assay type: physicochemical
property_measured: solubility
In your response, put the unit directly after the numeric value.

(Q) Could you share which solubility value was measured for C[C@H](c1ccnc(Nc2nc3ccc(-c4cc(N(C)C)ncn4)cc3[nH]2)c1)N1CCN(C(=O)CC(F)(F)F)CC1 ?
(A) 0.8 µg/mL

###

# test_method_notes: Apparent permeability of compound across apical to basal membrane in human Caco2 cells at 2 uM in DMSO after 2 hrs by LC-MS/MS analysis
# Type: ADME, cell-based
# particulars: Caco-2
Consider the following compounds; for each one, report its Papp A→B at 2 h, 2 µM.
Give bare numbers, in nm/s.

List Papp A→B at 2 h, 2 µM for every entry below, keeping the order given.
1. Cc1noc(-c2ccc3nc(Nc4cc(CN5CCN(C(=O)C6CC6)CC5)ccn4)[nH]c3c2)n1
2. Cc1noc(-c2ccc3nc(Nc4cc(CN5CCN(C(=O)CC6CC6)CC5)ccn4)[nH]c3c2)n1
3. Cc1noc(-c2ccc3nc(Nc4cc([C@@H](C)N5CCN(C(=O)CC(F)(F)F)CC5)ccn4)[nH]c3c2)n1

(A)
1. 68
2. 52
3. 108

###

# target_of_assay: Serine/threonine-protein kinase TBK1 (Homo sapiens)
# Sequence (Q9UHD2 whole entry): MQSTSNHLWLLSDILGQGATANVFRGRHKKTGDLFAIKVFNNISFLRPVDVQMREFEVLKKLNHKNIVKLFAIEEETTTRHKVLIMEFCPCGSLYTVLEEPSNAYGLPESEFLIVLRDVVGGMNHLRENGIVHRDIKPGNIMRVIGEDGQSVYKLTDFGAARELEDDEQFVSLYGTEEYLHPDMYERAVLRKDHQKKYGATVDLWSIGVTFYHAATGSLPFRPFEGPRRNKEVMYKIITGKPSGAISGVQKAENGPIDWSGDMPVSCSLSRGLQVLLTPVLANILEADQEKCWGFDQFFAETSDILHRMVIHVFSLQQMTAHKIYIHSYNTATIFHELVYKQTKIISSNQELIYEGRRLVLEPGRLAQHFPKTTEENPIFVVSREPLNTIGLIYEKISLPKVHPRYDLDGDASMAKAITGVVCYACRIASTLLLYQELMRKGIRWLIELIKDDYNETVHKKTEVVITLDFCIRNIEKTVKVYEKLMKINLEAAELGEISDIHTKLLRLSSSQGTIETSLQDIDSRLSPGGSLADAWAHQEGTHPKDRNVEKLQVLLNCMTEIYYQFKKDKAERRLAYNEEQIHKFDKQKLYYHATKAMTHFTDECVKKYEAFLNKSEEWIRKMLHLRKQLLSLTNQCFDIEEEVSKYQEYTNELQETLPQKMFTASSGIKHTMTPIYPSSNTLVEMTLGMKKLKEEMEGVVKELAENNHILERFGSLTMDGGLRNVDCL
# test_method_notes: Inhibition of recombinant full length human N-terminal His-tagged TBK1 using biotin-labelled Ahx-GDEDFSSFAEPG peptide as substrate preincubated with enzyme for 15 mins followed by substrate addition and further incubated for 30 mins in presence of 1 mM of ATP by TR-FRET assay
property_measured: pIC50
One number for each entry, as −log10 of the molar value.

1) Cc1noc(-c2ccc3nc(Nc4cc(CN5CCN(CC(F)(F)F)CC5)ccn4)[nH]c3c2)n1 :: 5.43

List pIC50 for every entry below, keeping the order given.
1. C[C@H](c1ccnc(Nc2nc3ccc(-c4cc(N(C)C)ncn4)cc3[nH]2)c1)N1CCN(C(=O)CC(F)(F)F)CC1
2. Cc1noc(-c2ccc3nc(Nc4cc(CN5CCN(C(=O)CC(F)(F)F)CC5)ccn4)[nH]c3c2)n1
3. CC(C)Oc1cncnc1-c1ccc2nc(Nc3cc([C@@H](C)N4CCN(C(=O)CC(F)(F)F)CC4)ccn3)[nH]c2c1

(A)
1. 7.52
2. 5.64
3. 7.30

(Q) Which measured pIC50 belongs to C[C@H](c1ccnc(Nc2nc3ccc(-c4cc(OCC5CC5)ncn4)cc3[nH]2)c1)N1CCN(C(=O)CC(F)(F)F)CC1 , tested on Serine/threonine-protein kinase TBK1 (Homo sapiens)?
(A) 8.30

###

# target_of_assay: CDK9/cyclin T1 (Homo sapiens, UniProt P50750)
# Sequence (O60563 whole entry): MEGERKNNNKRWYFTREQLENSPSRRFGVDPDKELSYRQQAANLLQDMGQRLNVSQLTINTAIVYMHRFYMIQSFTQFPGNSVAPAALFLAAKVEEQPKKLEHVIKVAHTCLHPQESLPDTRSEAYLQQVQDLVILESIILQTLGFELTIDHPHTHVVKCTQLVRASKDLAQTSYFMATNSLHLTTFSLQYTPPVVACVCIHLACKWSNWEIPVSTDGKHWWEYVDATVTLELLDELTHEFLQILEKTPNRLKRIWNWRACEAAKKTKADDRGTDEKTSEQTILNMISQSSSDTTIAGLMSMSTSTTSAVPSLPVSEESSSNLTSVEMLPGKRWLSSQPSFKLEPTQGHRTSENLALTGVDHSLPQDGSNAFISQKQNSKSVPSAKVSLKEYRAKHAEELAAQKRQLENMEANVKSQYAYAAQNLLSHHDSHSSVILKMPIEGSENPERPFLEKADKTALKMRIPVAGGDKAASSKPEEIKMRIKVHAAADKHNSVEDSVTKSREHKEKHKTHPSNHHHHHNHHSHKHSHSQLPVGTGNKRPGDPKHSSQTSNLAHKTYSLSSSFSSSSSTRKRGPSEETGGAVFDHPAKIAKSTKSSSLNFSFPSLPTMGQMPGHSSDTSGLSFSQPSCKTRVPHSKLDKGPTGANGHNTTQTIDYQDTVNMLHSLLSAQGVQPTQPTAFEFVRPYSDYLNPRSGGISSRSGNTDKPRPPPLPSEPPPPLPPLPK
# Sequence (P50750 whole entry): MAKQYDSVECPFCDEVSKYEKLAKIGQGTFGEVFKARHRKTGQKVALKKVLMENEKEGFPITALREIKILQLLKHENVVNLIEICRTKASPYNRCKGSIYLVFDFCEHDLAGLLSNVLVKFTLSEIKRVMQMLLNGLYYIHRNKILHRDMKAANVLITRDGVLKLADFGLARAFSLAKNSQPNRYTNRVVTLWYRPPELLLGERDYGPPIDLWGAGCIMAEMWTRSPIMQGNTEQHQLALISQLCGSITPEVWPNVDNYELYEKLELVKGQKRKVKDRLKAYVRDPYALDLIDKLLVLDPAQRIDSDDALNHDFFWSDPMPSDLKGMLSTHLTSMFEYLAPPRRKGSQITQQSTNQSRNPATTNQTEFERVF
# test_method_notes: Inhibition of recombinant full length human His-tagged CDK9/CyclinT1 expressed in baculovirus expression system using biotin-labelled Ttds-YISPLKSPYKISEG peptide as substrate preincubated with enzyme for 15 mins followed by substrate addition and further incubated for 25 mins presence of 10 uM of ATP by TR-FRET assay
pIC50: −log10 of the molar value.
Assign MET to entries whose pIC50 meets or exceeds 6; assign NOT MET to the rest.

Would you please look over these solved cases?
1) N#Cc1ccc2nc(Nc3cc(CN4CCN(C(=O)CC(F)(F)F)CC4)ccn3)[nH]c2c1 :: MET
2) C[C@H](c1ccnc(Nc2nc3ccc(-c4cnn(CC5CCC5)c4)cc3[nH]2)c1)N1CCN(C(=O)CC(F)(F)F)CC1 :: NOT MET
3) Cn1cc(-c2ccc3nc(Nc4cc(CN5CCN(C(=O)CC(F)(F)F)CC5)ccn4)[nH]c3c2)cn1 :: MET
4) Cc1cc(-c2ccc3nc(Nc4cc(CN5CCN(C(=O)CC(F)(F)F)CC5)ccn4)[nH]c3c2)ncn1 :: MET
5) Cc1cc(-c2ccc3nc(Nc4cc(CN5CCN(C(=O)CC(F)(F)F)CC5)ccn4)[nH]c3c2)ccn1 :: MET
6) CN(C)c1cc(-c2ccc3nc(Nc4cc(CN5CCN(C(=O)CC(F)(F)F)CC5)ccn4)[nH]c3c2)ccn1 :: MET

(Q) State whether the measured pIC50 reaches 6, counting equality as reaching it, for CN(C)c1cc(-c2ccc3nc(Nc4cc(CN5CCN(C(=O)CC(F)(F)F)CC5)ccn4)[nH]c3c2)ncn1
(A) NOT MET

(Q) State whether the measured pIC50 reaches 6, counting equality as reaching it, for Cc1cc(-c2ccc3nc(Nc4cc([C@@H](C)N5CCN(C(=O)CC(F)(F)F)CC5)ccn4)[nH]c3c2)ncn1
(A) NOT MET

(Q) State whether the measured pIC50 reaches 6, counting equality as reaching it, for C[C@H](c1ccnc(Nc2nc3ccc(-c4cc(OCC5CC5)ncn4)cc3[nH]2)c1)N1CCN(C(=O)CC(F)(F)F)CC1
(A) NOT MET

(Q) State whether the measured pIC50 reaches 6, counting equality as reaching it, for Cc1noc(-c2ccc3nc(Nc4cc(CN5CCN(C(=O)CC(F)(F)F)CC5)ccn4)[nH]c3c2)n1
(A) MET

(Q) State whether the measured pIC50 reaches 6, counting equality as reaching it, for CC(C)Cc1noc(-c2ccc3nc(Nc4cc(CN5CCN(C(=O)CC(F)(F)F)CC5)ccn4)[nH]c3c2)n1
(A) NOT MET

(Q) State whether the measured pIC50 reaches 6, counting equality as reaching it, for C[C@H](c1ccnc(Nc2nc3ccc(-c4cnn(CC5CC5)c4)cc3[nH]2)c1)N1CCN(C(=O)CC(F)(F)F)CC1
(A) NOT MET

The values you see were collected from ChEMBL document CHEMBL4376867.
